# ASSAY_TARGET: T1, HLA-DR2w2b (DRB1*1501), purified from 3107 cells (human)
# T1 chain 1: not shown
# T1 chain 2: not shown
# PROTOCOL_DESCRIPTION: 125I-peptide inhibition, purified class II
Non-standard residues stand in square brackets, D forms with d. No end group written: not given here. Cha = N[C@@H](CC1CCCCC1)C(=O)O
PROPERTY_LABEL: pIC50
# pIC50 = -log10(concentration in molar units)

Problem: For the binder [dA]A[Cha]VAAATLKAA[dA] [906.09] , give its reported pIC50.
Result: 7.85

These measurements were taken from patent US6413935.
